- Method Description: Quantitative highthroughput screen to assess conditional lethalithy of SEM cells grown in Human Plasma-Like Medium with dialyzed fetal bovine serum (HPLM+ds) (AID 1963882); also: nearly all actives have a fitted effect of over 35% in size; also: potency is read from the fitted curve at half-maximal effect
- Condition Notes: SEM B-ALL cells in HPLM+ds, CellTiter-Glo viability, 48 h; series mostly up to 45.8 µM
Results filed as inconclusive are left out. Calls of active or inactive are those of the source. Calls follow the shape of the dose curve; as a rule, active = well fitted cell-killing curve with a large enough effect; inconclusive = small, poorly fitted or top-dose-only effect, or effect the other way; inactive = no such curve, though single readings can be large or run the other way.
Endpoint Label: Potency

// worked examples, Potency included
Cc1cc2c(s1)Nc1ccccc1N=C2N1CCN(C)CC1    inactive
NC(=O)NN=Cc1ccc([N+](=O)[O-])o1    inactive
O=C1NC(=O)C(c2cnc3ccccn23)=C1c1cn2c3c(cccc13)CN(C(=O)N1CCOCC1)CC2    6.6 nM (active)
Nc1ccn([C@@H]2O[C@H](CO)[C@H](O)C2(F)F)c(=O)n1    11.8 nM (active)
CC(=O)NC(C)c1ccc(Oc2ccc(OC(C)C)cc2)cc1 (stereo not given)    inactive

Exercise: Value lookup for Potency; key = `COc1cc(C(C)C)c2c(c1)S(=O)(=O)N(COc1cc(=O)n3cccc(OCCN4CCCCC4)c3n1)C2=O`
Solution: inactive

Exercise: Now try `CNC(=O)c1ccc(-c2cnc3ncc(Cc4ccc5ncccc5c4)n3n2)cc1F` .
Solution: inactive

Exercise: Now try `Cc1ccc(Nc2nccc(N(C)c3ccc4c(C)n(C)nc4c3)n2)cc1S(N)(=O)=O` .
Solution: 16600 nM (active)

Exercise: Now try CCCCC(CC)COC(=O)C(C#N)=C(c1ccccc1)c1ccccc1 (stereo not given) .
Solution: inactive

Exercise: Now try `C[C@]12C=CC(=O)N[C@@H]1CC[C@H]1[C@H]3CC[C@@H](C(=O)Nc4cc(C(F)(F)F)ccc4C(F)(F)F)[C@@]3(C)CC[C@@H]12` .
Solution: inactive

Exercise: Now try `CN1CCc2c(n(Cc3ccc(C(=O)NO)cc3)c3ccccc23)C1` .
Solution: 26400 nM (active)

Exercise: Now try `COCCCN1CCC(NC(=O)c2cc(Cl)c(N)c3c2OCC3)CC1` .
Solution: inactive

Exercise: Now try `CCn1cc(C(=O)O)c(=O)c2ccc(C)nc21` .
Solution: inactive

Exercise: Now try `COc1cc2nc(N3CCN(C(=O)c4ccco4)CC3)nc(N)c2cc1OC` .
Solution: 9350 nM (active)

Exercise: Now try `COc1cc2nc(-c3cc(F)ccc3O)nc(N[C@@H]3CNC[C@@H]3C(C)(C)O)c2cc1OC` .
Solution: 332 nM (active)

Exercise: Now try `CCC(=C(CC)c1ccc(O)cc1)c1ccc(O)cc1` .
Solution: inactive

Exercise: Now try `C#C[C@]1(O)CC[C@@H]2[C@@H]3CCc4cc(O)ccc4[C@H]3CC[C@@]21C` .
Solution: 14800 nM (active)
